Values from patent US9981925B2

# target entity: His-AKT (Full Length) (Homo sapiens (Human), UniProt P31749)
# Sequence (P31749 whole entry): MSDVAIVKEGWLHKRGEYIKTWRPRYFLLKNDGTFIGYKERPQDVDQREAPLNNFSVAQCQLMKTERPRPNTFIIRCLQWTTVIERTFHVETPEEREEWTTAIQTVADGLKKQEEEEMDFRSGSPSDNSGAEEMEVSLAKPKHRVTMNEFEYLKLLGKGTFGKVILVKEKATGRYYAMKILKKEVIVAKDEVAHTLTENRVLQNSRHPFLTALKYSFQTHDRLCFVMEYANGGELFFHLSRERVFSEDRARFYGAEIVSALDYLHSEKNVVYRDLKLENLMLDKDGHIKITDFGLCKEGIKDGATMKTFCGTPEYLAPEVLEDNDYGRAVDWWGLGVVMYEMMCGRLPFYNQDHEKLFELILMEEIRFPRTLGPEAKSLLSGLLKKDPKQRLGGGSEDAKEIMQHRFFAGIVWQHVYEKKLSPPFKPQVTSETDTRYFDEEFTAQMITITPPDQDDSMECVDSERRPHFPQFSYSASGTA
# protocol: AKT/PKB kinase assay
# Type: biochemical
# condition summary: 160 μM ATP, 90 min at 25° C., Caliper mobility shift
measurement kind: IC50

Briefly, IC50 measured for NC(=O)c1cccc2c(NCc3ccc(Cl)c(C(F)(F)F)c3)nnnc12 : > 1000 nM

For this compound ( NC(=O)c1cccc2c(NC3CNCCC3c3cccc(C(F)(F)F)c3)nnnc12 (centres unmarked) ), measured IC50 is < 25 nM

CC(C)NC[C@@H](Nc1ncnc2c(C(N)=O)ccnc12)c1ccc(Cl)c(C(F)(F)F)c1 yielded IC50 of 101 to 500 nM
